Provenance of the data: the supplement of paper PMC12855868

B1: library; numbered along this chain (parent)
chain: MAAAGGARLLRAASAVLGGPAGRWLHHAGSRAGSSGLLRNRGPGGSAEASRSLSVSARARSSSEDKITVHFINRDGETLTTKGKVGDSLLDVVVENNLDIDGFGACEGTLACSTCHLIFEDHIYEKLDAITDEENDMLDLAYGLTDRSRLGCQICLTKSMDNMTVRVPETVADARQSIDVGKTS

variants of: B1; assay: scaled log2 fold change in cell abundance, elesclomol vs control (0 = silent mean, 1 = nonsense mean) (scaled log2 ratio); higher = higher viability under elesclomol (loss of FDX1 cuproptosis function); details: with ABC1 FDX1 KO; elesclomol 5 nM; glucose 10 mM; 14 days;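 also: variant abundance is its share of total variant reads in each endpoint sample, from next-generation sequencing of the integrated ORF PCR-amplified out of genomic DNA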
If the reported scaled log2 fold change equals or exceeds 0.1, assign Condition met. If not, assign Condition not met.

>  <MUTATION STRING>
M137R

>  <ASSIGNED CATEGORY>
Condition not met

$$$$
>  <MUTATION STRING>
L89D

>  <ASSIGNED CATEGORY>
Condition met

$$$$
>  <MUTATION STRING>
I118Q

>  <ASSIGNED CATEGORY>
Condition not met

$$$$
>  <MUTATION STRING>
D161V

>  <ASSIGNED CATEGORY>
Condition not met

$$$$
>  <MUTATION STRING>
K84H

>  <ASSIGNED CATEGORY>
Condition not met

$$$$
>  <MUTATION STRING>
G102T

>  <ASSIGNED CATEGORY>
Condition not met

$$$$
>  <MUTATION STRING>
D87N

>  <ASSIGNED CATEGORY>
Condition not met

$$$$
>  <MUTATION STRING>
V85I

>  <ASSIGNED CATEGORY>
Condition not met

$$$$
>  <MUTATION STRING>
T183E

>  <ASSIGNED CATEGORY>
Condition not met

$$$$
>  <MUTATION STRING>
R41W

>  <ASSIGNED CATEGORY>
Condition met

$$$$
>  <MUTATION STRING>
N135P

>  <ASSIGNED CATEGORY>
Condition met

$$$$
>  <MUTATION STRING>
I118C

>  <ASSIGNED CATEGORY>
Condition not met

$$$$
>  <MUTATION STRING>
S88W

>  <ASSIGNED CATEGORY>
Condition met

$$$$
>  <MUTATION STRING>
D179M

>  <ASSIGNED CATEGORY>
Condition not met

$$$$
>  <MUTATION STRING>
I100L

>  <ASSIGNED CATEGORY>
Condition not met

$$$$
>  <MUTATION STRING>
T131N

>  <ASSIGNED CATEGORY>
Condition met

$$$$
>  <MUTATION STRING>
H70Q

>  <ASSIGNED CATEGORY>
Condition not met

$$$$
>  <MUTATION STRING>
D136G

>  <ASSIGNED CATEGORY>
Condition met

$$$$
>  <MUTATION STRING>
R166N

>  <ASSIGNED CATEGORY>
Condition not met

$$$$
>  <MUTATION STRING>
L53W

>  <ASSIGNED CATEGORY>
Condition met

$$$$
>  <MUTATION STRING>
G104K

>  <ASSIGNED CATEGORY>
Condition met

$$$$
>  <MUTATION STRING>
H27D

>  <ASSIGNED CATEGORY>
Condition not met

$$$$
>  <MUTATION STRING>
R51K

>  <ASSIGNED CATEGORY>
Condition not met

$$$$
>  <MUTATION STRING>
D128A

>  <ASSIGNED CATEGORY>
Condition not met

$$$$
>  <MUTATION STRING>
E95C

>  <ASSIGNED CATEGORY>
Condition not met

$$$$
>  <MUTATION STRING>
A4M

>  <ASSIGNED CATEGORY>
Condition not met

$$$$
>  <MUTATION STRING>
A13E

>  <ASSIGNED CATEGORY>
Condition met

$$$$
>  <MUTATION STRING>
I178N

>  <ASSIGNED CATEGORY>
Condition met

$$$$
>  <MUTATION STRING>
R147Q

>  <ASSIGNED CATEGORY>
Condition not met

$$$$
>  <MUTATION STRING>
A12Q

>  <ASSIGNED CATEGORY>
Condition met

$$$$
>  <MUTATION STRING>
D121A

>  <ASSIGNED CATEGORY>
Condition not met

$$$$
>  <MUTATION STRING>
V171M

>  <ASSIGNED CATEGORY>
Condition met

$$$$
>  <MUTATION STRING>
G29Y

>  <ASSIGNED CATEGORY>
Condition not met

$$$$
>  <MUTATION STRING>
D179W

>  <ASSIGNED CATEGORY>
Condition met

$$$$
>  <MUTATION STRING>
I67N

>  <ASSIGNED CATEGORY>
Condition met

$$$$
>  <MUTATION STRING>
R147W

>  <ASSIGNED CATEGORY>
Condition met

$$$$
>  <MUTATION STRING>
K182E

>  <ASSIGNED CATEGORY>
Condition not met

$$$$
>  <MUTATION STRING>
H26M

>  <ASSIGNED CATEGORY>
Condition met

$$$$
>  <MUTATION STRING>
F119C

>  <ASSIGNED CATEGORY>
Condition met

$$$$
>  <MUTATION STRING>
G76Y

>  <ASSIGNED CATEGORY>
Condition not met

$$$$
>  <MUTATION STRING>
H122S

>  <ASSIGNED CATEGORY>
Condition not met

$$$$
>  <MUTATION STRING>
K66G

>  <ASSIGNED CATEGORY>
Condition met

$$$$
>  <MUTATION STRING>
C155E

>  <ASSIGNED CATEGORY>
Condition not met

$$$$
>  <MUTATION STRING>
M163T

>  <ASSIGNED CATEGORY>
Condition not met

$$$$
>  <MUTATION STRING>
D173K

>  <ASSIGNED CATEGORY>
Condition met

$$$$
>  <MUTATION STRING>
A111E

>  <ASSIGNED CATEGORY>
Condition not met

$$$$
